- method.summary: modulators of S6 phosphorylation in cells, primary screen, cell-based, A549, cytoblot, luminescence, serum-stimulated (AID 1158);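 further: serum-stimulated A549 lung adenocarcinoma cells; signal is phosphorylated S6 detected by cytoblot immunostaining with HRP secondary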
- applied.conditions: A549 phospho-S6 cytoblot, 5 h, higher = more signal
recorded.endpoint: z-score
Reply briefly: the number, and no unit.

{"columns": ["compound", "z-score"],
 "data": [
  ["O=C1C2C=CC(C(O)c3ccc([N+](=O)[O-])cc3)N(Nc3ccccc3)C2C(=O)N1c1ccccc1 (centres undefined)", -1.32]
]}

Data request: Identify the reported z-score for the following entry. COc1ccc([Si](C)(C)[C@H]2[C@H](CCn3cc([C@H](O)c4ccccc4)nn3)O[C@@]3(C(=O)N(C)c4c(Br)cc(C)cc43)[C@@H]2C)cc1
Data returned: -0.108

Data request: Identify the reported z-score for the following entry. C=CC[C@]1(C(=O)N(C)C)COC(c2ccc(OCCCO)cc2)=N1
Data returned: 0.116

Data request: Identify the reported z-score for the following entry. CCCCC(=C=CC[C@@H](O)c1ccc(OCCO)cc1)C[C@@H](O)c1ccccn1
Data returned: -0.787
